- Measurement Target: gastrin-releasing peptide receptor on PC-3 cells (UniProt P30550)
- Sequence (P30550 whole entry): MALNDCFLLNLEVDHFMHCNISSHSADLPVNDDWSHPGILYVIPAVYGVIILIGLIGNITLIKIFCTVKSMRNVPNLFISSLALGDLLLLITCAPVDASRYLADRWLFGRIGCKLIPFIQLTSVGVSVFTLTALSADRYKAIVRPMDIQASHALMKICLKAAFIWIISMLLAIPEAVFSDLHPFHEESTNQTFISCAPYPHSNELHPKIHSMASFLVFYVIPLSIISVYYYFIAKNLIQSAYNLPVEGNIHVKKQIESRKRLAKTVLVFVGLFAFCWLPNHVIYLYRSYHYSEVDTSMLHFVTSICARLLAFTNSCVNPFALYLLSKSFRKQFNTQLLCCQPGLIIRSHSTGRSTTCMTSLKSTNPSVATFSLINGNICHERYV
- Method: competition with ^125I-Bombesin for binding to 3x10^6 PC-3 cells, inhibitor 56 to 0.44 nM
Observed Property: pIC50
Would you please state pIC50, meaning minus log10 of the concentration in mol/L, as a bare number?

GET /value?item= IMP468 (NOTA-NH-(CH2)7CO-Gln-Trp-Val-Trp-Ala-Val-Gly-His-Leu-Met-NH2) (peptide) &field=pIC50 returns 7.67

###

- Measurement Target: somatostatin receptors on AR42J cells (rat)
- Method: apparent IC50; competition with ^111In(DTPA-octreotide) on AR42J cells, 3 h at RT
Observed Property: pIC50
Give only the number. pIC50 is defined as minus log10 of concentration in molar units.

{"Substance": "Al^19F(IMP466) (Al^19F complex of NOTA-D-Phe-Cys-Phe-D-Trp-Lys-Thr-Cys-Throl) (peptide)", "Observed Property": "pIC50", "Test Result": 8.44}

Shifting focus to the substance that follows.
pIC50 on somatostatin receptors on AR42J cells (rat) for ^69Ga(IMP466) (^69Ga complex of NOTA-D-Phe-Cys-Phe-D-Trp-Lys-Thr-Cys-Throl) (peptide) is 7.89
